- Test target: Met kinase (Homo sapiens, UniProt P08581)
- Sequence (P08581 974-1390 limits assumed): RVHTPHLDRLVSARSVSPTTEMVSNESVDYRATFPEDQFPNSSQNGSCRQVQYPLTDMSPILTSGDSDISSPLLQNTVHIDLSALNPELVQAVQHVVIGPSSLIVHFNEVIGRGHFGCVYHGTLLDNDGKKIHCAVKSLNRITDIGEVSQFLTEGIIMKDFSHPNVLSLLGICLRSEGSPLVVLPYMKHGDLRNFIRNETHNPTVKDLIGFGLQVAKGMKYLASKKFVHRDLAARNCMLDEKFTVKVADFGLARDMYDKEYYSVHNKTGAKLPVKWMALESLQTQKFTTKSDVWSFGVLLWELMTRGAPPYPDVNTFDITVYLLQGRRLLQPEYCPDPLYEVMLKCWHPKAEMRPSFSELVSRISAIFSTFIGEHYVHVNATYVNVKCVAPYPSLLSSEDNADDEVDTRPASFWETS
- Assay explanation: Flashplate method (Met kinase)
- Type: biochemical
- Set-up: 6His (N); purchased Upstate 14-526; host or cells: Sf21 insect cells (S. frugiperda), baculovirus
- Experimental setup: Met kinase inhibition, enzyme assay
Consider the following molecules; for each one, report its IC50.

Reported IC50 for O=C1OCCCN1c1cccc(Cn2nc(-c3cc(F)cc(F)c3)ccc2=O)c1 : what is it?
1 to 1000 nM

Reported IC50 for Cc1ccc(=O)n(-c2cccc(Cn3nc(-c4cc(F)cc(F)c4)ccc3=O)c2)n1 : what is it?
1 to 1000 nM

Reported IC50 for Cc1cnc(-c2cccc(Cn3nc(-c4cc(F)c(F)c(F)c4)ccc3=O)c2)nc1 : what is it?
1 to 1000 nM
